# measured target: P-gp (MDR1) (Homo sapiens)
# Sequence (P08183 whole entry): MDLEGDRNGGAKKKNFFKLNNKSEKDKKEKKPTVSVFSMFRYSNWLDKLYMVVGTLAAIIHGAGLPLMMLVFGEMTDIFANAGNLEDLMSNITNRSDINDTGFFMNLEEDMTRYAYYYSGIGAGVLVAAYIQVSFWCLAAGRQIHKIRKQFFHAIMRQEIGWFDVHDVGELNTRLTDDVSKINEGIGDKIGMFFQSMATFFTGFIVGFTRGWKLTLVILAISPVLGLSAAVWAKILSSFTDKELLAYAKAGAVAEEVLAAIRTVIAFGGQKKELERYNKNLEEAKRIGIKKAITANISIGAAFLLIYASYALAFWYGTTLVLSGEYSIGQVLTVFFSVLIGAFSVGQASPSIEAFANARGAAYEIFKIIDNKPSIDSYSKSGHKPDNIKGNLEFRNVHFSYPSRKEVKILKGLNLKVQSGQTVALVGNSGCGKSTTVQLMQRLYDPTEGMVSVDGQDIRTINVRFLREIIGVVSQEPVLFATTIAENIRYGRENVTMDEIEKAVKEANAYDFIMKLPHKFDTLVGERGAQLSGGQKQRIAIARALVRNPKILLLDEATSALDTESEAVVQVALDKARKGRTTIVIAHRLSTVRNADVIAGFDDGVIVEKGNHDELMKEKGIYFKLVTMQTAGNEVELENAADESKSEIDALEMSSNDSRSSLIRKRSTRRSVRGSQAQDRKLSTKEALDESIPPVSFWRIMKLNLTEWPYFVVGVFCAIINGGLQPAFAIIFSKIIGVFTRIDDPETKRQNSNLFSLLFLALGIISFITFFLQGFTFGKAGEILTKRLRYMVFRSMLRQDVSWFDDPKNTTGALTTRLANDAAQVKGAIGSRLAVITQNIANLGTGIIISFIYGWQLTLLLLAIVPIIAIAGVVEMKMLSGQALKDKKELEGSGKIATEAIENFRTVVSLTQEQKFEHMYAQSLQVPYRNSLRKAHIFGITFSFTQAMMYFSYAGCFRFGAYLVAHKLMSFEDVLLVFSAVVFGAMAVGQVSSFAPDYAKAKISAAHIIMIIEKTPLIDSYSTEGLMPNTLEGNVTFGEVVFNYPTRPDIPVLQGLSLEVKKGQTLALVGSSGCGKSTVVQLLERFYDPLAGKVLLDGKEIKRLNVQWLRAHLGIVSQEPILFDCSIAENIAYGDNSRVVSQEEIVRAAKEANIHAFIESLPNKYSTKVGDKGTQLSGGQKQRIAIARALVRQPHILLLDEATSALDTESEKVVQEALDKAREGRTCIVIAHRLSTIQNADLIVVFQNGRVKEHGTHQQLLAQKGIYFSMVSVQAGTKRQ
# test protocol: Bidirectional permeability in MDR1-MDCKII cells with and without GF120918
# assay conditions: dog, MDCK-MDR1, Mean recovery % B to A, without GF120918
assay readout: recovery at 2.5 h

> print(dat)
                                   compound  measurement
1  CS(=O)(=O)N1CCC(C(=O)NC2CCCOc3c2nn(-c2ccccc2Cl)c3-c2ccc(Cl)cc2)CC1 (stereo not drawn)        76.1%
2  O=S(=O)(NC1CCCOc2c1nn(-c1ccccc1Cl)c2-c1ccc(Cl)cc1)c1ccc(Cl)cc1 (stereo not drawn)        15.3%
3  CCOC(=O)N1CCC(C(=O)NC2CCCOc3c2nn(-c2ccccc2Cl)c3-c2ccc(Cl)cc2)CC1 (stereo not drawn)        48.8%

* * *

Reported recovery at 2.5 h values are given for each entry in this list.
# measured target: P-gp (MDR1) (Homo sapiens)
# test protocol: Bidirectional permeability in MDR1-MDCKII cells with and without GF120918
# assay conditions: dog, MDCK-MDR1, Mean recovery % B to A, with GF120918
assay readout: recovery at 2.5 h (%)

> print(dat)
                                   molecule      assay.readout  measurement
1  O=S(=O)(NC1CCCOc2c1nn(-c1ccccc1Cl)c2-c1ccc(Cl)cc1)c1ccc(Cl)cc1 (centres unmarked) [BNS808]  recovery at 2.5 h         23.4
2  CCOC(=O)N1CCC(C(=O)NC2CCCOc3c2nn(-c2ccccc2Cl)c3-c2ccc(Cl)cc2)CC1 (centres unmarked) [BNS816]  recovery at 2.5 h         61.4

* * *

# test protocol: Tissue distribution after acute oral administration
# Assay type: in vivo, mouse
# assay conditions: male, C57Bl/6J, mouse, liver; 1 mg/kg PO, 1 h post-acute administration; read-out: liver concentration
# Protocol: Male C57Bl/6J mice aged 7–9 weeks (3–4 mice per compound) were fasted overnight before administering each test compound. The compounds were accurately weighed and mixed with an appropriate vehicle to prepare a clear oral solution. The formulations were freshly prepared on the dosing day, and the mice were administered the compound via oral gavage within 4 h of formulation preparation. […] calculated using the equation: […]
assay readout: concentration at 1 h (ng/g)

> print(dat)
                              sample.smiles  measurement
1  Cc1c(C(=O)NN2CCCCC2)nn(-c2ccc(Cl)cc2Cl)c1-c1ccc(Cl)cc1          226

* * *

Reported Slope of cell viability inhibition curve values are given for each entry in this list.
# Tested on: HepG2 cells
# test protocol: Cell viability assay (CellTiter Glo)
# Format: cell-based
# assay conditions: 72 h
assay readout: Slope of cell viability inhibition curve

> print(dat)
                                   molecule                             assay.readout  measurement
1  Cc1ccc(S(=O)(=O)NC2CCCOc3c2nn(-c2ccccc2Cl)c3-c2ccc(Cl)cc2)cc1 (stereo not shown)  Slope of cell viability inhibition curve         1.52
2  CS(=O)(=O)N1CCC(C(=O)NC2CCCOc3c2nn(-c2ccccc2Cl)c3-c2ccc(Cl)cc2)CC1 (stereo not shown)  Slope of cell viability inhibition curve         3.71
3  O=C(NC1CCCOc2c1nn(-c1ccccc1Cl)c2-c1ccc(Cl)cc1)C1CCN(S(=O)(=O)c2ccc(Cl)cc2)CC1 (stereo not shown)  Slope of cell viability inhibition curve        -0.21
4  O=S(=O)(NC1CCCOc2c1nn(-c1ccccc1Cl)c2-c1ccc(Cl)cc1)c1ccc(Cl)cc1 (stereo not shown)  Slope of cell viability inhibition curve         3.39
